system: pneumococcal strains; test: MIC against clinical pneumococcal strains (penicillin susceptible, intermediate, resistant); assay type: cell-based, Streptococcus pneumoniae; conditions: Penicillin intermediate (n = 12)
Measured MIC of pneumococcal strains, Range of individual entries
Parameter Measured: MIC of pneumococcal strains, Range

CSC[C@H]1O[C@@H](n2cnc3c(N)ncnc32)[C@H](O)[C@@H]1O
74 to 594 µg/mL
COC1=CC(=O)O[C@@H](/C=C/c2ccc3c(c2)OCO3)C1
68 to 518 µg/mL
CCCCCCCC=NNc1ccc([N+](=O)[O-])cc1[N+](=O)[O-] [Compound 2, Octanal 2,4-dinitrophenylhydrazone]
38 to 154 µg/mL
CCCCCCCCCCCCOC(=O)c1cc(O)c(O)c(O)c1 [Compound 5, Dodecyl gallate]
42 to 168 µg/mL
CC(C)=CCCC1=CC(=O)c2c(O)ccc(O)c2C1=O
34 to 196 µg/mL
